Listed here are molecules together with their documented viability, T/C.
System: 253994-281-T-J1-PDC KRAS-mutant spheroids with HUVEC/MSC, viability;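 also: spheroids exposed to agents for seven days before readout; percent of DMSO vehicle control viability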
experimental_details: Anticancer human tumor 253994-281-T-J1-PDC patient-derived colorectal carcinoma cell line growth inhibition [KRAS2]
particulars: second compound 1 µM; first compound 0.0316 µM; stronger effect = lower value
result_type: viability, T/C (%)

• CC1(C)CCC(CN2CCN(c3ccc(C(=O)NS(=O)(=O)c4ccc(NCC5CCOCC5)c([N+](=O)[O-])c4)c(Oc4cnc5[nH]ccc5c4)c3)CC2)=C(c2ccc(Cl)cc2)C1 + C=CC(=O)N1CCN(c2nc(OCC3CCCN3C)nc3c2CCN(c2cccc4cccc(C)c24)C3)CC1CC#N = 83.6
• CCNC(=O)CC1N=C(c2ccc(Cl)cc2)c2cc(OC)ccc2-n2c(C)nnc21 (configuration not stated) + COc1cc2nc(C)nc(NC(C)c3cc(N)cc(C(F)(F)F)c3)c2cc1OC1CCOC1 = 92.9
• CC1COCCN1c1cc(-c2ccnn2C)c2ccnc(-c3ccn[nH]3)c2n1 (configuration not stated) + CNCc1ccccc1-c1csc(C(C)Nc2nc(C)nc3cc(OC)c(OC)cc23)c1 = 85.5
• CC1COCCN1c1cc(-c2ccnn2C)c2ccnc(-c3ccn[nH]3)c2n1 (configuration not stated) + COc1cc2nc(C)nc(NC(C)c3cc(N)cc(C(F)(F)F)c3)c2cc1OC1CCOC1 = 74.8
• COc1cc(Nc2ncc3c(n2)-c2ccc(Cl)cc2C(c2c(F)cccc2OC)=NC3)ccc1C(=O)O + COc1cc2nc(C)nc(NC(C)c3cc(N)cc(C(F)(F)F)c3)c2cc1OC1CCOC1 = 49
• Cn1nccc1Nc1nccc(-c2cc3c(s2)C(C)(C)N(CCN2CCOCC2)C3=O)n1 + CNCc1ccccc1-c1csc(C(C)Nc2nc(C)nc3cc(OC)c(OC)cc23)c1 = 87.7
• CC1OCC2(CCN(c3cnc(Sc4ccnc(N)c4Cl)c(N)n3)CC2)C1N (configuration not stated) + CNCc1ccccc1-c1csc(C(C)Nc2nc(C)nc3cc(OC)c(OC)cc23)c1 = 90.3
• CCNC(=O)CC1N=C(c2ccc(Cl)cc2)c2cc(OC)ccc2-n2c(C)nnc21 (configuration not stated) + CNCc1ccccc1-c1csc(C(C)Nc2nc(C)nc3cc(OC)c(OC)cc23)c1 = 87.3
• CC1COCCN1c1cc(-c2ccnn2C)c2ccnc(-c3ccn[nH]3)c2n1 (configuration not stated) + C=CC(=O)N1CCN(c2nc(OCC3CCCN3C)nc3c2CCN(c2cccc4cccc(C)c24)C3)CC1CC#N = 94.4
• CCNC(=O)CC1N=C(c2ccc(Cl)cc2)c2cc(OC)ccc2-n2c(C)nnc21 (configuration not stated) + C=CC(=O)N1CCN(c2nc(=O)n(-c3c(C)ccnc3C(C)C)c3nc(-c4c(O)cccc4F)c(F)cc23)C(C)C1 = 107
• COc1cc(Nc2ncc3c(n2)-c2ccc(Cl)cc2C(c2c(F)cccc2OC)=NC3)ccc1C(=O)O + CC1OCC2(CCN(c3cnc(Sc4ccnc(N)c4Cl)c(N)n3)CC2)C1N = 23.4
• Cn1nccc1Nc1nccc(-c2cc3c(s2)C(C)(C)N(CCN2CCOCC2)C3=O)n1 + COc1cc2nc(C)nc(NC(C)c3cc(N)cc(C(F)(F)F)c3)c2cc1OC1CCOC1 = 92.3
